READOUT: Kd
Write the numeric value and follow it with the unit.

// returns Kd for C[N+](C)(C)CC(=O)[O-] with WT BetP (AMP-BetP) (Corynebacterium glutamicum, UniProt P54582); value = 188 µM
